Test system: MS2 coat protein
assayText: apparent KD of MS2 coat protein, switch ON state; designed switch direction (-1 OFF switch, 1 ON switch): -1; higher = weaker reporter binding
testParameters: FMN input: 0 or 200 uM; Eterna round: R93 (includes R88 designs)
Measured apparent KD of MS2 coat protein, listed per entry.
metricName: apparent KD of MS2 coat protein (nM)

> print(dat)
                              sequencerecord  reported
 1  AAGAAGCGAGGAUAUACAUGAGGAUCACCCAUGUAAAAGAAAGAAAAGGGAAAGAAAAGUAGAAGGCGCAAGAA [Nebpehtire Ahmose I, Ahmosis I]        53
 2  UUUUGACAUGAGGAUCACCCAUGUCAGGAUAUAGUAGGACAAAAAAAAAAAAGUUCUACUAGAAGGGAUAUGAA [Design 16: Not So Super Stable 2]      17.8
 3  AAAACACAUGAGGAUCACCCAUGUGAGGAUAUGCUAUGGAAAUAAAAAAUAAAACAUAGCAGAAGGCACAAGGA [Mat - Exclusion 1 - Eli mod - D45]      31.1
 4  CUCUAGUCAGGAUAUCGAAGAAAAGAAGAGAAAGAAAAGAACGAGAAGGGACAUGAGGAUCACCCAUGUAAGAA [EteRNA is fun!]        50
 5  UUUACGUGAGGAUAUGCGAAUAGAACGUAAGUCAUACAGACGCAGAAGGCACAUGAGGAUCACCCAUGUGAACC [JR_Exc004_Sub312]        20
 6  AAAAUACAUGAGGAUCACCCAUGUCAGGAUAUUCCUGCAGCCUUGAAUAAGGGCUGGUGAAGAAGGGACGGUGA [Ancele]      33.4
 7  AGAAAGCUAGGAUAUACCUGGAGGGUUCUAAAUGAAAUAAAACAUGAGGAUCACCCAUGUAGAAGGAGCCCGAA [Sobire]      18.3
 8  AGUAUGCGAGGAUAUACAUGAGGAUCACCCAUGUGAGAGAUAAGUGUGAGAAAGACAAGUAGAAGGCGCGUACA [JL Lego Mod 27]       106
 9  GAAAAGUGAGGAUAUUCGGAUAGGAAAACGAAAACCUAUCCGAAGAAGGCACAUGAGGAUCACCCAUGUGAAAA [Mat - Exaclusion 4 - Eli mod - D44]      22.4
10  AGUUGGCGAGGAUAUACAUGAGGAUCACCCAUGUGAAAAAAAAAAGUGAGAAAGAAAAGUAGAAGGCGCUGACA [Mat - Exclusion 3 - Lego mod - D89]      35.1
11  AAAAAAAGAGGAUAUACAUGAGAAAAAAAAAUGUAAAAAAAACAUGAGGAUCACCCAUGUAGAAGGCUUAAAAA [Ecxl-I]      33.5
12  AAGAAUGCAGGAUAUACAAGAAAGAAAGAAAAGAAAAGAAAACAUGAGGAUCACCCAUGUAGAAGGGCAUAGAA [EteRNA is fun!]      32.6
13  GAAAAGUGAGGAUAUACAGAUAAAAAAACGAAAAAAAAUCUGUAGAAGGCACAUGAGGAUCACCCAUGUAAAAG [Mat - Exclusion 4 - Mayanna - D107]        36
14  AAGAAGUCAGGAUAUGCUAAAGAAAUAAAAAGAAAGAAAGAACAUGAGGAUCACCCAUGUAGAAGGGACAAGAA [Seheqenre Sankhptahi]      72.9
15  ACUAAUGAAGGAUAUACAAACAACAAACACACAACACACACACAUGAGGAUCACCCAUGUAGAAGGUCAAACAU [JR_Exc002_Sub1203]      15.8
16  AACAGUACAGGAUAUACAUGAGGAUCACCCAUGUGAACUUCAAGUGCCGUAGCACGAAGUAGAAGGGUACUGGA      63.4
17  AAAAAACAUGAGGAUCACCCAUGUUAGGAUAUGCUAUGGAAAAUAAAAAAUAAACAUAGCAGAAGGAACAAAAA [Mat - Exclusion 1 - Eli mod - D30]      21.2
18  AAAAAGAGAGGAUAUGCAGGAGGUAAGGUCAAAAAAAAAAAACAUGAGGAUCACCCAUGUAGAAGGUUUAAAAA [Ecls2-VI]      29.3
19  AAAAACAGAGGAUAUACAUGAGGAUCACCCAUGUAAAAAUGUAGAAGGCUGAAAAAAAAAAGAAGGAAAAAAAA [Meechl Ex3 R2 m0]      21.6
20  AACAUGUGAGGAUAUAUAAGAAAAGAAAAGAAAGAAAAGAAAUAGAAGGCACAUGAGGAUCACCCAUGUAAGAA [EteRNA is fun!]        30
21  AAAAAACAUGAGGAUCACCCAUGUGAGGAUAUGUAAAAUAAAAUAAAAAUAAAAAAAAGCAGAAGGUAUAUGAA [Amethyst 66]      31.4
22  AAAAAGUGAGGAUAUACAUGAGAAAAAAAAAUGUAAAAAAAACAUGAGGAUCACCCAUGUAGAAGGCACAAAAA [Ecxl-II]      40.8
23  AAAACACAUGAGGAUCACCCAUGUGAGGAUAUGCUAUGGAAAAUAAAAAUAAAACAUAGCAGAAGGCACAAAAA [Denovo 12]      20.3
24  AAAAAGGUAGGAUAUACGAGGAGAAAUAAUAAAUAAAUAAAACAUGAGGAUCACCCAUGUAGAAGGACCAAAAA [Ex 2 sub 2]      27.6
25  AAGUAGCUAGGAUAUACAUAGAUACAGAUUCAUGUAGAACUACAUGAGGAUCACCCAUGUAGAAGGAGCUAAUA [AJ 35]      31.4
26  AGCUAGGUAGGAUAUACGUAAAUGUCGAAAGACGUAUUGGGACAUGAGGAUCACCCAUGUAGAAGGAUCUAGCA [it's a mod mod mod world 3]      38.8
